// data source = patent US9156877B2

# method summary: Metabolic stability in human liver microsomes
# Type: in vitro ADME
# condition info: 1 μM, well-stirred model
Overview of recorded Predicted clearance [l/h/kg] Human for various compounds
The reply should contain only the number, in L/h/kg.

stdin: Item C[C@]12C[C@H](c3ccc(/C=C/CO)cc3)C3=C4CCC(=O)C=C4CC[C@H]3[C@@H]1CC[C@@]2(O)C(F)(F)C(F)(F)F [Example 2] has what recorded Predicted clearance [l/h/kg] Human?
stdout: 0.41

stdin: Query C[C@]12C[C@H](c3ccc(/C=C/CC(C(=O)O)C(=O)O)cc3)C3=C4CCC(=O)C=C4CC[C@H]3[C@@H]1CC[C@@]2(O)C(F)(F)C(F)(F)F [Example 5] next
stdout: 0.00

stdin: Query C[C@]12C[C@H](c3cccc(/C=C/c4ccccn4)c3)C3=C4CCC(=O)C=C4CC[C@H]3[C@@H]1CC[C@@]2(O)C(F)(F)C(F)(F)F [Example 21] next
stdout: 0.7

stdin: Query C[C@]12C[C@H](c3ccc(/C=C/C#N)cc3)C3=C4CCC(=O)C=C4CC[C@H]3[C@@H]1CC[C@@]2(O)C(F)(F)C(F)(F)F [Example 14] next
stdout: 0.9

stdin: Query C[C@]12C[C@H](c3ccc(/C=C/c4ccc(C(=O)O)cc4)cc3)C3=C4CCC(=O)C=C4CC[C@H]3[C@@H]1CC[C@@]2(O)C(F)(F)C(F)(F)F [Example 29] next
stdout: 0.08

---

# method summary: Metabolic stability in rat liver microsomes
# Type: in vitro ADME
endpoint: Predicted Fmax [%] (maximum oral bioavailability) Rat (%)
The reply should contain only the number, in %.

Would you please look over these solved cases?
| compound | reported measurement |
| --- | --- |
| C[C@]12C[C@H](c3ccc(/C=C/C=C/C(=O)O)cc3)C3=C4CCC(=O)C=C4CC[C@H]3[C@@H]1CC[C@@]2(O)C(F)(F)C(F)(F)F [Example 17] | 91 |
| C[C@]12C[C@H](c3cccc(/C=C/c4ccccn4)c3)C3=C4CCC(=O)C=C4CC[C@H]3[C@@H]1CC[C@@]2(O)C(F)(F)C(F)(F)F [Example 21] | 88 |

Now for a further compound.
stdin: Item C[C@]12C[C@H](c3cccc(/C=C/c4ccncc4)c3)C3=C4CCC(=O)C=C4CC[C@H]3[C@@H]1CC[C@@]2(O)C(F)(F)C(F)(F)F [Example 23] has what recorded Predicted Fmax [%] (maximum oral bioavailability) Rat?
stdout: 95

---

# target or test system: human progesterone receptor A (Homo sapiens)
# Sequence (P06401 165-933): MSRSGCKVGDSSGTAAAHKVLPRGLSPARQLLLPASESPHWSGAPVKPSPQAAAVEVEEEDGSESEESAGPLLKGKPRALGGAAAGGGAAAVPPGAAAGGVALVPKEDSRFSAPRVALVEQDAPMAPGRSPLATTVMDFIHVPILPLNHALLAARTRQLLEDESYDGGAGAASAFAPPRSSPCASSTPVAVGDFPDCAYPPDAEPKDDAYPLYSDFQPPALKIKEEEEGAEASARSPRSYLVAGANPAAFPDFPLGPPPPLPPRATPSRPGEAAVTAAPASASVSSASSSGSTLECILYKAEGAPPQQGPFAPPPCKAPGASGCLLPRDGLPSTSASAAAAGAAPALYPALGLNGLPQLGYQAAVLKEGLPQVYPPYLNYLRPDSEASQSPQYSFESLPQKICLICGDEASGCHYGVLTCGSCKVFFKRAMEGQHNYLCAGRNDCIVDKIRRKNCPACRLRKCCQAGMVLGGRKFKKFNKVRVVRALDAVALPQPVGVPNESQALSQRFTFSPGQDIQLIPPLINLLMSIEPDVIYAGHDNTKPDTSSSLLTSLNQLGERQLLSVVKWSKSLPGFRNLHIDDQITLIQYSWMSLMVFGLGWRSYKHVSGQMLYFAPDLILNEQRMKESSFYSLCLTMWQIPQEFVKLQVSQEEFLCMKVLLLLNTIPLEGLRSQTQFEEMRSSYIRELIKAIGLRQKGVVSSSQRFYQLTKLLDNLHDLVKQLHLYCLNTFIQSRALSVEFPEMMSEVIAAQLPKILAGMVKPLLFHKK
# method summary: Progesterone receptor-antagonistic action in stably transfected SK-N-MC cells with MMTV-LUC reporter (PR-A)
# condition info: antagonistic potency against 0.1 nmol/l promegestone, 24 hours, luciferase
Mark Satisfied only for IC50 values smaller than 0.06 nM; exact matches and larger values are Not satisfied.

Look over these answered cases.
| compound | target or test system | label class |
| --- | --- | --- |
| Cc1nc(/C=C/c2ccc([C@H]3C[C@@]4(C)[C@@H](CC[C@@]4(O)C(F)(F)C(F)(F)F)[C@@H]4CCC5=CC(=O)CCC5=C43)cc2)cs1 [Example 9] | human progesterone receptor A (Homo sapiens) | Satisfied |
| CSc1ccc(/C=C/c2ccc([C@H]3C[C@@]4(C)[C@@H](CC[C@@]4(O)C(F)(F)C(F)(F)F)[C@@H]4CCC5=CC(=O)CCC5=C43)cc2)cc1 [Example 33] | human progesterone receptor A (Homo sapiens) | Not satisfied |
| Cc1nc2cc(/C=C/c3cccc([C@H]4C[C@@]5(C)[C@@H](CC[C@@]5(O)C(F)(F)C(F)(F)F)[C@@H]5CCC6=CC(=O)CCC6=C54)c3)ccc2s1 [Example 25] | human progesterone receptor A (Homo sapiens) | Not satisfied |

Let us examine a further case.
stdin: In the record for C=CC=Cc1ccc([C@H]2C[C@@]3(C)C(CC[C@@]3(O)C(F)(F)C(F)(F)F)C3CCC4=CC(=O)CCC4=C32)cc1 (mixture of isomers) [Example 18] , is IC50 less than 0.06 nM?
stdout: Satisfied

---

Overview of recorded log10 of IC50 for various compounds
# target or test system: human progesterone receptor B (Homo sapiens)
# Sequence (P06401 whole entry): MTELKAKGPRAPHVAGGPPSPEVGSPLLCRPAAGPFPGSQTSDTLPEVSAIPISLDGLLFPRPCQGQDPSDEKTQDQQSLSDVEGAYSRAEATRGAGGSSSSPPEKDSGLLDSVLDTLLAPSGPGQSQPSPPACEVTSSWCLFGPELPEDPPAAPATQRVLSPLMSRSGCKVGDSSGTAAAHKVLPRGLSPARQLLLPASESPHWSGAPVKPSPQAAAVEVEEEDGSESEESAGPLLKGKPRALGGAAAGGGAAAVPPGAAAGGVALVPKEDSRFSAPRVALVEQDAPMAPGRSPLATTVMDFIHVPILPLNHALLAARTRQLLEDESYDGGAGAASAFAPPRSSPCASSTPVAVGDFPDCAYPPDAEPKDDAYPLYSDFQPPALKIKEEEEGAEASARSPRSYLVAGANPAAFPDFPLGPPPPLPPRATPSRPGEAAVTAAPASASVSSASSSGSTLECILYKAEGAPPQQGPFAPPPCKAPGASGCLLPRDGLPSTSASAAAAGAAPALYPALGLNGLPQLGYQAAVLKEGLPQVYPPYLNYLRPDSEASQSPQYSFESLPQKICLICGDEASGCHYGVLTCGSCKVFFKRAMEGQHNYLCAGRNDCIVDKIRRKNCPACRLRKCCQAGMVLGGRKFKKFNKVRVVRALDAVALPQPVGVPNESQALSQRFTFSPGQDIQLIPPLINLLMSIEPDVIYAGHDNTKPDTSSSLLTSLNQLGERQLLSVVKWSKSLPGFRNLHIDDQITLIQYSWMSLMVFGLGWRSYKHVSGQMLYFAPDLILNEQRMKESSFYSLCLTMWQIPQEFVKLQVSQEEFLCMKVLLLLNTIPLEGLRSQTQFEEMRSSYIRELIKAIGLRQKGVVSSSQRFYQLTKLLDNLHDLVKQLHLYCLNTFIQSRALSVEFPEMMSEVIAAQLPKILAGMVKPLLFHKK
# method summary: Progesterone receptor-antagonistic action in stably transfected SK-N-MC cells with MMTV-LUC reporter (PR-B)
# condition info: antagonistic potency against 0.1 nmol/l promegestone, 24 hours, luciferase
Remember, log10 of IC50, in nM.

| compound | target or test system | log10 of IC50 |
| --- | --- | --- |
| Cc1nc(/C=C/c2ccc([C@H]3C[C@@]4(C)[C@@H](CC[C@@]4(O)C(F)(F)C(F)(F)F)[C@@H]4CCC5=CC(=O)CCC5=C43)cc2)cs1 [Example 9] | human progesterone receptor B (Homo sapiens) | -1.05 |
| C[C@]12C[C@H](c3ccc(/C=C/c4ccc(C(=O)O)cc4)cc3)C3=C4CCC(=O)C=C4CC[C@H]3[C@@H]1CC[C@@]2(O)C(F)(F)C(F)(F)F [Example 29] | human progesterone receptor B (Homo sapiens) | -1.05 |
| CC(=O)/C=C/c1ccc([C@H]2C[C@@]3(C)[C@@H](CC[C@@]3(O)C(F)(F)C(F)(F)F)[C@@H]3CCC4=CC(=O)CCC4=C32)cc1 [Example 16] | human progesterone receptor B (Homo sapiens) | -0.52 |

stdin: Item Cc1noc(C)c1NC(=O)NC/C=C/c1ccc([C@H]2C[C@@]3(C)[C@@H](CC[C@@]3(O)C(F)(F)C(F)(F)F)[C@@H]3CCC4=CC(=O)CCC4=C32)cc1 [Example 48] has what recorded log10 of IC50?
stdout: -1.52

stdin: Query C[C@]12C[C@H](c3ccc(/C=C/CC(C#N)C#N)cc3)C3=C4CCC(=O)C=C4CCC3C1CC[C@@]2(O)C(F)(F)C(F)(F)F (stereo partly drawn) [Example 27] next
stdout: -1.00

stdin: Query C[C@]12C[C@H](c3ccc(C=NOCc4ccccc4)cc3)C3=C4CCC(=O)C=C4CC[C@H]3[C@@H]1CC[C@@]2(O)C(F)(F)C(F)(F)F [Example 35] next
stdout: -1.05

stdin: Query C[C@]12C[C@H](c3ccc(/C=N/OCC(=O)O)cc3)C3=C4CCC(=O)C=C4CC[C@H]3[C@@H]1CC[C@@]2(O)C(F)(F)C(F)(F)F [Example 34] next
stdout: 0.45

stdin: Query C=Cc1ccc([C@H]2C[C@@]3(C)[C@@H](CC[C@@]3(O)C(F)(F)C(F)(F)F)[C@@H]3CCC4=CC(=O)CCC4=C32)cc1 [Example 1] next
stdout: -1.92

stdin: Query C[C@]12C[C@H](c3ccc(CO)cc3)C3=C4CCC(=O)C=C4CC[C@H]3[C@@H]1CC[C@@]2(O)C(F)(F)C(F)(F)F [Ref. 1, reference compound] next
stdout: -0.10

stdin: Query C[C@]12C[C@H](c3ccc(/C=C/c4cccc(C(=O)O)c4)cc3)C3=C4CCC(=O)C=C4CC[C@H]3[C@@H]1CC[C@@]2(O)C(F)(F)C(F)(F)F [Example 28] next
stdout: -1.00

stdin: Query CCOC(=O)/C=C/c1ccc([C@H]2C[C@@]3(C)[C@@H](CC[C@@]3(O)C(F)(F)C(F)(F)F)[C@@H]3CCC4=CC(=O)CCC4=C32)cc1 [Example 12] next
stdout: -0.59

stdin: Query C=Cc1cccc([C@H]2C[C@@]3(C)[C@@H](CC[C@@]3(O)C(F)(F)C(F)(F)F)[C@@H]3CCC4=CC(=O)CCC4=C32)c1 [Example 19] next
stdout: 0.48

---

Overview of recorded Predicted Fmax [%] (maximum oral bioavailability) Human for various compounds
# method summary: Metabolic stability in human liver microsomes
# Format: in vitro ADME
The reply should contain only the number, in %.

Would you please look over these solved cases?
| compound | reported measurement |
| --- | --- |
| C[C@]12C[C@H](c3ccc(/C=C/CC(C#N)C#N)cc3)C3=C4CCC(=O)C=C4CCC3C1CC[C@@]2(O)C(F)(F)C(F)(F)F (stereo partly drawn) [Example 27] | 26 |
| C[C@]12C[C@H](c3ccc(/C=C/c4ccccn4)cc3)C3=C4CCC(=O)C=C4CC[C@H]3[C@@H]1CC[C@@]2(O)C(F)(F)C(F)(F)F [Example 6] | 84 |
| C[C@]12C[C@H](c3ccc(/C=C/c4ccc(C(=O)O)cc4)cc3)C3=C4CCC(=O)C=C4CC[C@H]3[C@@H]1CC[C@@]2(O)C(F)(F)C(F)(F)F [Example 29] | 94 |
| Cc1nc(/C=C/c2ccc([C@H]3C[C@@]4(C)[C@@H](CC[C@@]4(O)C(F)(F)C(F)(F)F)[C@@H]4CCC5=CC(=O)CCC5=C43)cc2)cs1 [Example 9] | 68 |
| C[C@]12C[C@H](c3ccc(/C=C/C#N)cc3)C3=C4CCC(=O)C=C4CC[C@H]3[C@@H]1CC[C@@]2(O)C(F)(F)C(F)(F)F [Example 14] | 31 |

stdin: Item C[C@]12C[C@H](c3ccc(/C=C/CC(C(=O)O)C(=O)O)cc3)C3=C4CCC(=O)C=C4CC[C@H]3[C@@H]1CC[C@@]2(O)C(F)(F)C(F)(F)F [Example 5] has what recorded Predicted Fmax [%] (maximum oral bioavailability) Human?
stdout: 100

stdin: Query C[C@]12C[C@H](c3ccc(/C=C/C(=O)O)cc3)C3=C4CCC(=O)C=C4CC[C@H]3[C@@H]1CC[C@@]2(O)C(F)(F)C(F)(F)F [Example 13] next
stdout: 52

stdin: Query C[C@]12C[C@H](c3cccc(/C=C/c4cccnc4)c3)C3=C4CCC(=O)C=C4CC[C@H]3[C@@H]1CC[C@@]2(O)C(F)(F)C(F)(F)F [Example 22] next
stdout: 41

stdin: Query CC(=O)/C=C/c1ccc([C@H]2C[C@@]3(C)[C@@H](CC[C@@]3(O)C(F)(F)C(F)(F)F)[C@@H]3CCC4=CC(=O)CCC4=C32)cc1 [Example 16] next
stdout: 23
